- tested_system: Adenosine receptor A2a (Homo sapiens)
- Sequence (P29274 whole entry): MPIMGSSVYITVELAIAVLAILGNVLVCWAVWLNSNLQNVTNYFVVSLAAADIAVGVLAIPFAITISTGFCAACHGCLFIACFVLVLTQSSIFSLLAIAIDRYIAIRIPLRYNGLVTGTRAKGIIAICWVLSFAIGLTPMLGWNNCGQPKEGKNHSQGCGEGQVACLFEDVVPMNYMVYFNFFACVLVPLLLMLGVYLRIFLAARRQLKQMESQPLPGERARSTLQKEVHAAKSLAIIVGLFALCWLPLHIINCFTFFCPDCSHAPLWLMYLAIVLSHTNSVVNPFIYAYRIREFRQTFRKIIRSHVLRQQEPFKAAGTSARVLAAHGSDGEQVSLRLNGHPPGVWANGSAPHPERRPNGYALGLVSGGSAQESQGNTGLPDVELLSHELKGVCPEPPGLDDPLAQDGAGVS
- protocol_text: Displacement of [3H]-ZM241385 from human recombinant A2A receptor expressed in human HEK293 cell membrane preincubated for 5 mins and measured after 1.5 hrs by radioligand competition binding assay
pIC50: −log10 of the molar value.
Use 7 as the dividing line for pIC50, with the line itself on the label 1 side and lower values as label 0.

Quick check: does CC(=O)Nc1ccc(-c2cn3c(nc4ccccc43)c(N)n2)cc1 have pIC50 greater than or equal to 7?
label 0

Tell me whether pIC50 is at least 7 here: Nc1nc(-c2ccc(Cl)cc2)cn2c1nc1ccccc12
label 1

Check if pIC50 >= 7 (inclusive). Item: COc1cccc(-c2cn3c(nc4ccccc43)c(N)n2)c1
label 1

Origin of values: ChEMBL document CHEMBL4813923
